Tested on: 621-103 (TSC2-rescued)
measurement-protocol: relative viability vs DMSO; higher = less cytotoxic
condition-notes: 0.1 µM; serum: 10% FBS; 72 h
measurement-kind: relative viability (%)
All answers are understood in %, so give the number only.

Guide cases for relative viability, answers given:
compound	study-system	relative viability, %
OCCn1cc(-c2cnc3nnn(Cc4ccc5ncccc5c4)c3n2)cn1	621-103 (TSC2-rescued)	103
Cc1cnc(NC(=O)Nc2cc(Br)c(C)cc2OC[C@@H]2CNCCO2)cn1	621-103 (TSC2-rescued)	109
Nc1nc(F)nc2c1ncn2[C@@H]1O[C@H](COP(=O)(O)O)[C@@H](O)[C@@H]1O [Fludarabine Phosphate]	621-103 (TSC2-rescued)	103
COc1cc2nccc(Oc3ccc(NC(=O)Nc4cc(C)on4)c(Cl)c3)c2cc1OC	621-103 (TSC2-rescued)	99.3
Cn1cnc2c(F)c(Nc3ccc(Br)cc3Cl)c(C(=O)NOCCO)cc21 [AZD6244 (Selumetinib)]	621-103 (TSC2-rescued)	106
CC(=O)Nc1ccccc1 [Acetanilide]	621-103 (TSC2-rescued)	101
CC(C)(Oc1ccc(C2CC2(Cl)Cl)cc1)C(=O)O (centres undefined) [Ciprofibrate]	621-103 (TSC2-rescued)	109
Nc1cc(C(F)(F)F)c(-c2cc(N3CCOCC3)nc(N3CCOCC3)n2)cn1	621-103 (TSC2-rescued)	104

Next compound, relative viability to be filled in.
Quick check: relative viability on 621-103 (TSC2-rescued), item "Cc1cc(Nc2cc(CN3CCOCC3)c3nc(C)c(Cc4ccc(Cl)cc4F)n3n2)n[nH]1" ?
98.4

* * *

Tested on: 621-102 (TSC2-deficient)
measurement-protocol: relative viability vs DMSO; higher = less cytotoxic
condition-notes: 1 µM; serum: 10% FBS; 72 h
measurement-kind: relative viability (%)
All answers are understood in %, so give the number only.

molecule	endpoint-unit	relative viability
COC(=O)N[C@H](C(=O)N1CCC[C@H]1c1ncc(-c2ccc(-c3ccc(-c4cnc([C@@H]5CCCN5C(=O)[C@@H](NC(=O)OC)C(C)C)[nH]4)cc3)cc2)[nH]1)C(C)C	%	96.2
Cc1cc(Nc2cc(N3CCN(C)CC3)nc(/C=C/c3ccccc3)n2)n[nH]1	%	81.1

Quick check: relative viability on 621-102 (TSC2-deficient), item CCC(C)n1ncn(-c2ccc(N3CCN(c4ccc(OCC5COC(Cn6cncn6)(c6ccc(Cl)cc6Cl)O5)cc4)CC3)cc2)c1=O (stereo unspecified) [Itraconazole (Sporanox)] ?
60

* * *

Test system: UMB1949 (TSC2-deficient);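 also: renal angiomyolipoma cell lines screened in 384-well plates, viability normalized per plate to DMSO-treated cells, each plate carrying 50 nM rapamycin and 1 µM staurosporine controls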
measurement-protocol: relative viability vs DMSO (fraction); higher = less cytotoxic
condition-notes: 0.064 nM; serum: 0.1% FBS; 72 h
Lab note - cut at 0.9 for relative viability: true (1) if strictly below, false (0) if not.

molecule	label-class
CC(C)c1cc(C(C)C)c(CC(=O)NS(=O)(=O)Oc2c(C(C)C)cccc2C(C)C)c(C(C)C)c1 [Avasimibe]	false (0)
CCCCc1nc2cc(/C=C/C(=O)NO)ccc2n1CCN(CC)CC [SB939]	false (0)
CC(C)C[C@@H](C=O)NC(=O)[C@H](CC(C)C)NC(=O)[C@H](CC(C)C)NC(=O)OCc1ccccc1 [MG132]	true (1)
COc1cc(Nc2ncc3c(n2)-c2ccc(Cl)cc2C(c2c(F)cccc2OC)=NC3)ccc1C(=O)O [MLN8237]	true (1)
Cn1cc(CNCC2CCN(c3ncc(C(=O)NO)cn3)CC2)c2ccccc21	false (0)
Nc1nc2[nH]cc(CCc3ccc(C(=O)N[C@@H](CCC(=O)O)C(=O)O)cc3)c2c(=O)[nH]1 [Pemetrexed disodium]	false (0)
Nc1nc(Cl)nc2c1ncn2[C@@H]1O[C@H](CO)[C@@H](O)[C@@H]1F [Clofarabine]	false (0)
CCS(=O)(=O)c1cccc(-c2cc(C(=O)NC3CCN(C)CC3)c(C)c3[nH]c4ncc(C)cc4c23)c1 [TAK-901]	true (1)
Nc1ncnc2c1c(-c1cccc(OCc3ccccc3)c1)cn2C1CC(CN2CCCC2)C1 (stereo not given) [NVP-ADW742]	false (0)
Cc1ccc(NC(=O)c2ccc(CN3CCN(C)CC3)cc2)cc1Nc1nc(-c2cccnc2)cs1 [Masitinib(AB1010)]	false (0)

Please look at the following molecule next.
# check: relative viability < 0.9 for NC(=O)Nc1cc(-c2cccc(F)c2)sc1C(=O)N[C@H]1CCCNC1 [AZD7762]
false (0)

Origin of measurements: the supplement of paper PMC8960247
